conditionDescription: in ethylene glycol, 323.15 K
assayReadout: solubility (mole fraction)

// query Dear colleague, I am looking for the recorded solubility (mole fraction) of the following compound: "O.O=C1NC(=O)C(=O)C(=O)N1"
// result 0.0327

* * *

conditionDescription: in ethanol, 293.15 K
assayReadout: solubility (mole fraction)

// query Dear colleague, I am looking for the recorded solubility (mole fraction) of the following molecule: "O.O=C1NC(=O)C(=O)C(=O)N1"
// result 0.0856

* * *

conditionDescription: in methanol, 298.15 K
assayReadout: solubility (mole fraction)
Quick one: just the number, no unit, thanks!

// query Dear colleague, I am looking for the recorded solubility (mole fraction) of the following compound: "O.O=C1NC(=O)C(=O)C(=O)N1"
// result 0.117
